Where do these numbers come from? They come from PubChem BioAssay AID264.

In this section, each of the compounds is paired with its reported T/C.
- Tested on: nude mice, LX-1 lung xenograft intrarenal, tumor weight T/C
- Test Description: NCI In Vivo Anticancer Drug Screen. Data for tumor model Human Lung LX-1 Xenograft (intrarenal inoculation) in NU/NU Swiss (nude) mice
- Applied Conditions: endpoint: mean tumor weight change; dose: 50.0 mg/kg/injection; schedule: Q01DX010 (sc); vehicle: Klucel (hydroxypropylcellulose) (HPC); higher = larger tumour
Inconclusive results are not listed.

Below are worked cases with known answers.
Compound: COc1ccc(C(N)=O)cc1N=NN(C)C
Parameter Measured: T/C
Recorded Value: -25 % of control
//
Compound: CCCC(=O)OCc1cc(=O)n(C)c2c3c4c(cc12)c(C)cc(=O)n4CO3
Parameter Measured: T/C
Recorded Value: 70 % of control
//
Compound: Cc1ccc2c(ccc(CC(=S)[S-])[n+]2C)c1
Parameter Measured: T/C
Recorded Value: 56 % of control

Query string: // fetch T/C given entry CC1CN=C(c2ccc(NC(=O)c3ccc(C(=O)Nc4ccc(C5=NCC(C)N5)cc4)cc3)cc2)N1 (stereo not given)
Result string: 213 % of control

Query string: // fetch T/C given entry "C[C@]12CCC(=O)C(O)=C1CC[C@@H]1[C@@H]2CC[C@]2(C)C(=O)CC[C@@H]12"
Result string: 43 % of control
